half-life at 1 µM reference
# test_protocol: Metabolic stability in liver microsomes, rat (RLM)
# Type: in vitro ADME, Sprague Dawley Rat
# assay_conditions: Sprague Dawley, rat, liver microsomes, pH 7.4, 0.5 mg/mL protein, 1 µM compound, NADPH, read-out: Metabolic Stability T½ (min), RLM
Output spec: scalar in min, unitless text.

Observe how each entry below is paired with its result.
# compound, half-life at 1 µM (min)
data = [
    ("COc1cc2c(cc1Nc1ncc(Cl)c(N3CC(C)(CC(=O)O)c4ccccc43)n1)CN(C)CC2 (single isomer, unassigned) [Example 2]", 38.4),
    ("COc1cc2c(cc1Nc1ncc(Cl)c(N3CC(C(=O)O)c4ccccc43)n1)CN(C)CC2 (stereo not shown) [Compound 7, reference compound]", 4260),
    ("COc1cc2c(cc1Nc1ncc(Cl)c(N3CC(C)(CC(=O)O)c4ccc(F)cc43)n1)CN(C)CC2 (stereo not shown) [Compound 10, reference compound]", 17),
]

Would you kindly look at the next entry?
Exam item: Quick one: half-life at 1 µM for COc1cc2c(cc1Nc1ncc(Cl)c(N3CC(CC(=O)O)c4ccccc43)n1)CN(C)CC2 (stereo not shown) [Compound 8, reference compound] ?
Marked response: 48.2
